Each record here notes measured logD.
assay.comment: method code SF-AS, from DOI: 10.1016/0223-5234(96)88212-2
applied.conditions: pH 7.4
Just the number, please, no unit after it.

logD reading for Clc1ccccc1N1CCN(CCn2nnc3ccccc32)CC1 : 3.35

logD reading for Clc1ccccc1N1CCN(CCCOn2nnc3ccccc32)CC1 : 3.6
